Tested on: Echinochloa crus-galli
Assay: Post-emergence herbicidal activity against Echinochloa crus-galli (barnyard grass) assessed as growth inhibition at 1500 ai g/ha after 20 days by green house test
Assay type: functional
READOUT NAME: growth inhibition (GI)

Check out these entries, answers already filled in.
COP(=O)(OC)C(OC(=O)COc1cccc(C(F)(F)F)c1)c1cccc([N+](=O)[O-])c1 (centres undefined) = 50%
COP(=O)(COC(=O)COc1ccc(Cl)cc1Cl)OC = <=50%
COP(=O)(OC)C(OC(=O)COc1ccc(F)cc1)c1cccc([N+](=O)[O-])c1 (centres undefined) = 50%
COP(=O)(OC)C(C)OC(=O)COc1ccc(Cl)cc1Cl (centres undefined) [CLACYFOS] = 50%
COP(=O)(OC)C(C)OC(=O)COc1cccc(Cl)c1Cl (centres undefined) = <=50%

Lookup: Given CCC(OC(=O)COc1ccc(Cl)cc1Cl)P(=O)(OC)OC (centres undefined) , state its recorded growth inhibition (GI).
Found: 50%

Lookup: Repeat for the following molecule: COP(=O)(OC)C(C)OC(=O)COc1ccc(F)c(Cl)c1 (centres undefined)
Found: <=50%
